# Target under test: T1, human PD-L1 protein (coated antigen) (human, UniProt Q9NZQ7 19-238, limits assumed)
# T1 construct: Construct not described; also called PD-L1 antigen; antigenic protein PD-L1
# T1 sequence (Q9NZQ7 19-238 limits assumed): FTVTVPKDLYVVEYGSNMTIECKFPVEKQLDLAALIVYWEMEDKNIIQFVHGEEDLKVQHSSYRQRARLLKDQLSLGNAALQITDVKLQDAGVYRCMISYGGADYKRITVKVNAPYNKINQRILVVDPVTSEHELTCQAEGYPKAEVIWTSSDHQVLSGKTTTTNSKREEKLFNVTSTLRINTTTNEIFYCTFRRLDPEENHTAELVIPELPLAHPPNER
# Measurement protocol: ELISA, purified nanobody 10 ug/mL, coated PD-L1 against coated PD-L2
Measured OD ratio (PD-L1/PD-L2) values are reported for all entries that follow.
Answer with the value's number alone.

SEQ ID NO 1 (VHH, pMECS-expressed; also called anti-PD-L1 nanobody No. 1; VHH numbered 1) VHH: QVQLQESGGGSVQTGGSLRLSCTASTSIYSNNYMAWFSQSPGKGREGVAAVYMDDGRPYYADSVKGRFTISLDSAKNTMYLQMNSLKPEDTAMYYCAAAPGPLSRNYWYTSANYDYWGQGTQVTVSS    32.2
SEQ ID NO 6 (VHH, pMECS-expressed; also called anti-PD-L1 nanobody No. 6; VHH numbered 6) VHH: QVQLQESGGGSVQAGETLRLSCTASGDTFDASGVGWFRQVSGNECDLVSSINRDGTTYYAPSVAGRFTMSQNNAKNTVYLQMNSLKPDDTAVYYCATDPAVGIVVRSTCRGPFGYWGQGTQVTVSS    29.9
SEQ ID NO 11 (VHH, pMECS-expressed; also called anti-PD-L1 nanobody No. 11; VHH numbered 11) VHH: QVQLQESGGGSVQAGETLRLSCTASGDTFDDSGVGWFRQVSGNECDLVSSINRDGTTYYAPSVAGRFTISQNNAKNTVYLQMNSLKPDDTAVYYCATVPAVGIVVRITCRGPFGYWGQGTQVTVSS    25

Proceeding to the next binder to report its OD ratio (PD-L1/PD-L2).
Form field: reported OD ratio (PD-L1/PD-L2) of SEQ ID NO 2 (VHH, pMECS-expressed; also called anti-PD-L1 nanobody No. 2; VHH numbered 2) VHH: QVQLQESGGGSVQAGGSLRLSCAVSRYSASNNVIKWMGWFRQAPGKEREGVAALYTSGGNTYYADSVKGRFTISRDYSENTVSLQMNNLKPEDTGMYYCATTVGTVLAGPLSARKYNYWGQGTQVTVSS 31.8
